// provenance: patent US20250034275A1

Molecular target: T1, human Trop-2 (on the surface of human cell lines) (human, UniProt P09758 27-323)
T1 sequence: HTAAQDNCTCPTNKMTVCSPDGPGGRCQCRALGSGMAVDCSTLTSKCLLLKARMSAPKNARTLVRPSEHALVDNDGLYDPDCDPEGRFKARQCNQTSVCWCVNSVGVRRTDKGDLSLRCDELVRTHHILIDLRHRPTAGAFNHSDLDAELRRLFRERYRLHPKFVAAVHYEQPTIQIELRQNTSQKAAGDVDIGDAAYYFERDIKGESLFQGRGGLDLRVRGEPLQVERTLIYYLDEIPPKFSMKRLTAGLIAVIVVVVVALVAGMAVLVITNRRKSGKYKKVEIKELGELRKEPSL
Assay: cell-based or functional assay
This listing pairs binders with measured ADCC reporter (Jurkat-CD16a v158-NFAT-luciferase), target cell HCC1806, EC50.
readout_kind: ADCC reporter (Jurkat-CD16a v158-NFAT-luciferase), target cell HCC1806, EC50 (pM)

[[record]]
binder = "ch-Ab2 (antibody, human IgG1, kappa, V domains shown, also called chimeric antibody of Ab2) VH: EVQLVESGPGLVAPSQSLSITCTVSGFSLTYYGIDWVRQPPGKGLEWLGVIWGSGNTKYNSALMSRLSISKDNSKSQVFLRMNSLQSDDTAIYYCARFYEGFAYWGQGTLVTVSA VL: AIVLTQSPSSMYASLGERVTITCKASQDINSYLSWFQQKPGKSPKTLIYRANRLVDGVPSRFSGSGSGQDYSLTISSLEYEDMGIYYCLQYDEFPLTFGVGTKLELKR"
value_unit = "pM"
experimental_value = 200

[[record]]
binder = "hz-Ab2-1.4 (antibody, human IgG1, kappa, V domains shown, Humanized antibody) VH: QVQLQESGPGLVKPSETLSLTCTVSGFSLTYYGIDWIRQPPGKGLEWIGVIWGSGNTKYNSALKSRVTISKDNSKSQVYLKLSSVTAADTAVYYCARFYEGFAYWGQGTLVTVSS VL: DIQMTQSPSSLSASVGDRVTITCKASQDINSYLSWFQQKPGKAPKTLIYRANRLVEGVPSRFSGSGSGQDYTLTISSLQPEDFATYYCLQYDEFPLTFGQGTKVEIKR"
value_unit = "pM"
experimental_value = 390

